Consider the following binders; for each one, report its 500 nM hAngPTL4 peptide Bound (RU).
TESTED SYSTEM: T1, peptide from the N-terminal coiled-coil region of human ANGPTL4 (hANGPTL4 peptide, SEQ ID NO: 339) (human)
T1 peptide: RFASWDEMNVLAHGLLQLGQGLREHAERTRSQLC
PROCEDURE TEXT: SPR, captured mAb, 500 nM peptide, 25C
Give bare numbers, in RU.

Below are worked cases with known answers.
BINDER	500 nM hAngPTL4 peptide Bound (RU)
H4H15318P (antibody, human IgG4, V domains shown, H4H prefix: human IgG4 Fc) VH: QVQLVESGGGVVQPGRSLRLSCTASGFTFGNFGIHWVRQAPGKGLEWVAVISYDGTDKFYADPVKGRFIISRDNSMNILYLQMNSLRAEDTAVYYCAKDGEMELRGYYYYYGMDVWGQGTTVTVSS VL: DIQMTQSPSSVSASVGDRVTITCRASQGINTWLAWYQQKPGTAPKLLIFAASSLESGVPSRFSGSGFGTDFTLTISSLQSEDLATYFCQQVHSPPYTFGQGTKLEIK	0
H4H15341P (antibody, human IgG4, V domains shown, H4H prefix: human IgG4 Fc) VH: EVQLVESGGGLVQPGGSLRLSCAASGFTFNNHEMNWVRQAPGKGLEWVSYISSSGNTVTYADFLKGRFTISRDNAKNSLFLQMNSLRDEDTAVYYCARDHLSGTSPLSYWGQGTLVTVSS VL: DIQMTQSPSSLSASVGDRVTITCQASQDINNYLNWFQQKPGKAPKLLIFDASNLETGVPSRFSGSGSGTDFTFTISSLQPEDIATYFCQQYENLPYTFGQGTKLEIK	0
H4H15335P (antibody, human IgG4, V domains shown, H4H prefix: human IgG4 Fc) VH: QVQLVESGGGVVQPGRSLRLSCAASGFTFNNYGIHWVRQAPGKGLEWVAVISYDESNKYYADSVKGRFTISRDNSKNTLYLQMNSLRAEDTAVYYCAKDIRIAARRHYYYYGMDVWGQGTTVTVSS VL: DIQMTQSPSSVSASVGDRVTITCRASQGISRWLAWYQQKPGKAPKLLIYAASSLESGVPARFSGSGSGTDFTLTISSLQPEDFATYYCQQANSFPITFGPGTKVDIK	1

Q: Report 500 nM hAngPTL4 peptide Bound (RU) for H4H15347P (antibody, human IgG4, V domains shown, H4H prefix: human IgG4 Fc) VH: EVQLVESGGGLVQPGGSLRLSCAASGFTFRNYAMNWARQAPGKGLEWVSGITGSGGATYYADSVKGRFTISRENSKNTLFLQMDTLRAEDTAVYYCAKDRRYFPTSGGPQWGQGTLVTVSS VL: DIVMTQSPLSLPVTPGEPASISCRSSRSLLHSSGYNYLDWYLQKPGQSPQLLLYLGSNRASGVPDRFSGSGSGTYFTLKISRVDAEDVGVYYCMQALQTPWTFGQGTKVEIK please.
Result: 0

The measurements presented in this section are drawn from patent US20170037124A1.
